- EXPERIMENTAL_SYSTEM: RSV prefusion F (preF), subtype B (respiratory syncytial virus, subtype B)
- METHOD_SUMMARY: BLI, IgG
We begin with a simple list: items and their reported Kd.
Record the result as number plus unit.

IN: Dear colleague, I am looking for the recorded Kd of the following binder: ADI-14592 (antibody, V domains shown) VH: QVQLVQSGAEVKKPGESLKISCKGSGYTFTNYWIGWVRQMPGKGLEWMGIIYPDDSDTRYSPSFQGQVTISVDKSINTAYLQWSSLRASDTAIYYCACSNWPHYFDSWGQGTLVTVSS VL: NFMLTQPHSVSESPGKTVTISCTRSSGNIAGNYVQWYQQRPGSAPTTVIYEDNQRPSGVPDRFSGSIDSSSNSASLTISGLKTEDEAVYYCQSYHPGNWVFGGGTKLTVL
OUT: 0.301 nM

IN: What value of Kd has been reported for the following binder? ADI-14590 (antibody, V domains shown) VH: EVQLVESGAEVKKPGESLKISCKGSGYSFATYWIGWVRQMPGKGLEWMGIIYPGDSDTRYSPSFQGQVTISADKSISTAYLQWSSLKASDTAIYYCARAKLPVAGLYYFDYWGQGTLVTVSS VL: DIQLTQSPSSLSASVGDRVTITCRASQGISSTLAWYQQKPGKAPKLLIYDASSLESGVPSRFSGSGSGTDFTLTISSLHPEDFATYYCQQFNTYPTFGGGTKVEIK
OUT: 5.99 nM

IN: Tell me the measured Kd of ADI-14411 (antibody, V domains shown, also called Ab 77) VH: QVQLVQSGAEVKKPGASVKLSCKASGYTFTRFYIHWVRQAPGQGLEWMGIINPSGGGTSYAQNFQDRVTMTRDTSTSTVYMELSSLRSEDTAVYYCARNGYSTRSLQNNWFDPWGQGTLVTVSS VL: ETTLTQSPSSLSASVGDRVTITCRASQSIDNYLNWYQQKPGKAPKLLIYEASSLQSGVPSRFSGSGSGTDFTLTISSLQPEDFATYYCQQTYSSLPYTFGQGTKVEIK , please.
OUT: 3.92 nM
